Measured pIC50 of individual entries
target: wt human TYK2, catalytic site (Homo sapiens)
Construct: 2 nM wt human TYK2, catalytic site (SignalChem/CAN)
Sequence (P29597 897-1176 limits assumed): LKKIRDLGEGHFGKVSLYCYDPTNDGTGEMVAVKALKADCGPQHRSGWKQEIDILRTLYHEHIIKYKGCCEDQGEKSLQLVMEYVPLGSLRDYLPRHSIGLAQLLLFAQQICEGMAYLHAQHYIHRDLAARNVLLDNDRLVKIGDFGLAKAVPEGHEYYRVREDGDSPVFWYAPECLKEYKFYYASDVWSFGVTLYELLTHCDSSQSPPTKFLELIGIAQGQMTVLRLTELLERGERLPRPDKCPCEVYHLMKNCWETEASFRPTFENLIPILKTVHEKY
testDetails: HTRF KinEASE assay, TYK2
cond: 1 μM ATP; read-out: IC50, inhibitory activity toward TYK2
Protocol: Basic protocol for HTRF KinEASE assay (Cisbio/FRA) inhibitor studies involved two steps: Enzymatic step: Addition of 4 μl of test compound in corresponding DMSO dilutions, 4 μl of kinase/substrate mixture, 2 μl of ATP into 384 well small volume plates. Incubation for at least 30 minutes at room temperature. Detection step: Addition of 5 μl antibody and 5 μl streptavidin-XL665, read plate after 60 minutes. Data analysis of emission ratios according to KinEASE assay protocol. […]
pIC50: −log10 of the molar value.

molecule: Fc1cccc(-c2ccc3c(c2)N=C(c2c(Cl)cccc2Cl)Nc2c[nH]nc2-3)c1 [Compound 243]
pIC50: 7.00 to 8.00
--
molecule: O=C(c1ccc2c(c1)N=C(c1c(F)cccc1F)Nc1cn[nH]c1-2)N1CCOCC1 [Compound 56]
pIC50: 6.00 to 7.00
--
molecule: Cc1ccc2c(c1)-c1[nH]ncc1NC(c1c(F)cccc1Br)=N2 [Compound 161]
pIC50: 6.00 to 7.00

Kindly consider the entry below.
Sample Fc1cc2c(cc1-c1ccnnc1)N=C(c1c(F)cccc1F)Nc1c[nH]nc1-2 [Compound 226] ; pIC50 observed: > 8.00
